Values from patent US20240246937A1

Listing: EC50 of selected compounds
biological target: recombinant IL4I1 (Homo sapiens (Human)); assay: IL4I1 Enzymatic Assay (Amplex Red/HRP coupled fluorescence detection of H2O2); assay type: biochemical; conditions: 240 min; recombinant IL4I1, four-hour pre-incubation with compound
Sequence (Q96RQ9 22-567): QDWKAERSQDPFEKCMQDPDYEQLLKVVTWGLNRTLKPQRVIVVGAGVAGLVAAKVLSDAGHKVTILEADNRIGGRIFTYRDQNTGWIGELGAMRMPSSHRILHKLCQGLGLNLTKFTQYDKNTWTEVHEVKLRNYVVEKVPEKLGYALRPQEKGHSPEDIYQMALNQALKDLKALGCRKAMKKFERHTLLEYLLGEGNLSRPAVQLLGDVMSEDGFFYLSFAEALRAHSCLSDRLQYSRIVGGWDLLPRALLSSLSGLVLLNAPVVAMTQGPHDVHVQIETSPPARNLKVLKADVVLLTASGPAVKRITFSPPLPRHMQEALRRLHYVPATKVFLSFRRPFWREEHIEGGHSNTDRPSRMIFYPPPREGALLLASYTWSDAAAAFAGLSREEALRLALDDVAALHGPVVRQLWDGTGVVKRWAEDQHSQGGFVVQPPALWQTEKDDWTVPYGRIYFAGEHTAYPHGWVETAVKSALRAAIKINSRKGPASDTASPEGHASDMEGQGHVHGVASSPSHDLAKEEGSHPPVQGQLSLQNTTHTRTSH
// units = nM; emit number, no label

Here's what some known entries look like.
- O=C1C(=O)N(C2CCCC2)CCN1Cc1ccc(N2CCC(F)(F)C2)nc1: 31
- O=C1C(=O)N(C2CCCC2)CCN1Cc1ccc(-n2nccn2)cn1: 17
- O=C1C(=O)N(C2CCCC2)CCN1Cc1ncc(-c2cc(F)ccn2)cn1: 133
- O=C1C(=O)N(C2CCCC2)CCN1Cc1ccc(-c2ccccc2)cn1: 12
- O=C1C(=O)N(C2CCCC2)CCN1Cc1ccc(N2CC3CC3C2)nn1 (stereo not drawn): 20

stdin: Given the entry `N#CC1(N2CCN(Cc3nnc(-c4ccccc4)s3)C(=O)C2=O)CC1` , report its measured EC50.
stdout: 35

stdin: Please look up its EC50: `O=c1c(=O)n(C2(CF)CC2)ccn1Cc1ccc(-c2ccccn2)nn1`
stdout: 82

stdin: Fill in the blank: the reported EC50 of `O=C1C(=O)N([C@H]2C[C@H]3C[C@H]3C2)CCN1Cc1nnc(-c2ccccc2F)s1` is ____.
stdout: 7

stdin: // returns reported EC50 for input `O=c1c(=O)n([C@H]2C[C@H]3C[C@H]3C2)ccn1Cc1cnc(-c2ccccc2)cn1`
stdout: 3

stdin: Would you mind telling me what EC50 value was observed for `O=C1C(=O)N(C2CCCC2)CCN1Cc1ccc(-c2cncs2)nc1` ?
stdout: 7

stdin: Please report the recorded EC50 for `O=C1C(=O)N(C23CC(C2)C3)CCN1Cc1ccc(-n2nccn2)cc1F` .
stdout: 27

stdin: What does the data say about its EC50? Entry: `O=C1C(=O)N(C2CCC2)CCN1Cc1ncc(-c2cccc(F)c2)s1`
stdout: 8
